protocol notes: qHTS drug screen for cell cycle checkpoint inhibitors in PARPi-resistant BRCA-mutant ovarian cancer cell lines. (AID 1963452)
run conditions: PEO1/OlaR viability, CellTiter-Glo luminescence, 96 h; measured here: PEO4 Z-AUC; stronger effect = lower value
Readings of Z-AUC for the listed compounds
Simply state the number, no unit and no words.

Consider the reported Z-AUC for these compounds:
>>> result_value("Cc1cc(-c2cnn3c(NCC4CC(C)(O)C4)cc(Oc4cccnc4)nc23)ccc1C(=O)NC1CC1 (stereo not given)")
-0.202
>>> result_value("Nc1cccc2c1CN([C@H]1CCC(=O)NC1=O)C2=O")
1.07
>>> result_value("COc1ccccc1C(=O)Nc1cc2c(cc1N1CCCCC1)n(C)c(=O)n2C")
0.646

[ask] Need Z-AUC of Cc1[nH]c(/C=C2\C(=O)Nc3ccc(S(=O)(=O)Cc4c(Cl)cccc4Cl)cc32)c(C)c1C(=O)N1CCC[C@@H]1CN1CCCC1 , thanks.
[reply] 0.0929

[ask] Field request: Z-AUC | item: CC(=O)N[C@H]1[C@H](O[C@@H]2c3ccc(c(Cl)c3)Oc3cc4cc(c3O[C@@H]3O[C@H](CO)[C@@H](O)[C@H](O)[C@H]3NC(=O)CCCCCCCC(C)C)Oc3ccc(cc3Cl)C[C@H]3NC(=O)[C@H](N)c5ccc(O)c(c5)Oc5cc(O)cc(c5)[C@H](NC3=O)C(=O)N[C@H]4C(=O)N[C@H]3C(=O)N[C@@H]2C(=O)N[C@@H](C(=O)O)c2cc(O)cc(O[C@H]4O[C@H](CO)[C@@H](O)[C@H](O)[C@@H]4O)c2-c2cc3ccc2O)O[C@H](CO)[C@@H](O)[C@@H]1O
[reply] 1.05

----------
system under test: Calcium and integrin-binding protein 1 (Homo sapiens) (UniProt Q99828)
Sequence (Q99828 whole entry, looked up): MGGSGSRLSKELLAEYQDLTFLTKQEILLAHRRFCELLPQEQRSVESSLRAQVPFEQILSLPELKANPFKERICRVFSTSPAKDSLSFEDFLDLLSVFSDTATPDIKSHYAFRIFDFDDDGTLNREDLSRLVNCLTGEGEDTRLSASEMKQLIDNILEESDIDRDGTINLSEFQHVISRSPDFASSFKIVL
protocol notes: Confirmatory qHTS for Identification of Calcium Integrin Binding Protein 1 (CIB1) Competitor (AID 1508617); also: nearly all actives have a fitted effect of over 65% in size; also: potency is read from the fitted curve at half-maximal effect
run conditions: CIB1 binding competition assay, biochemical qHTS; series mostly up to 114 µM
Inconclusive results are not listed. Activity calls are given as the source filed them. The call rests on the fitted dose curve; in most records, active means well fitted inhibition curve with a large enough effect; inconclusive means small, poorly fitted or top-dose-only effect; inactive means no such curve, though single readings can be large or run the other way.
property name: Potency

// below: answered molecules
>>> result_value("CCc1ccc(NC(=O)C(=O)NNC(=O)c2cccs2)cc1")
"inactive"
>>> result_value("NC(=O)c1ccc(O)c2ncccc12")
"inactive"
>>> result_value("O=C(c1ccc(-c2cc(O)c3ncccc3c2)cc1)N1CCNCC1")
"inactive"
>>> result_value("Cc1ccc(S(=O)(=O)Nc2ccc(Br)cc2C(=O)Nc2nc(-c3ccccc3)cs2)cc1")
"inactive"

[ask] Looking for the measured Potency of N#Cc1ccc(NS(=O)(=O)c2ccc(NC(=O)Cc3ccc(Cl)c(Cl)c3)cc2)cc1 , can you help?
[reply] inactive

[ask] Look up Potency: Cc1ccc2nc3sc(C(=O)NCc4ccco4)cc3cc2c1
[reply] inactive

[ask] Consider the molecule shown here: C/C(=C\c1ccc2c(c1)OCO2)C1Nc2cccc3cccc(c23)N1 What is its recorded Potency?
[reply] inactive

[ask] Which Potency is listed for CC(C)(C)OC(=O)CC(=O)NNC(=O)c1nc2ccccc2[nH]1 ?
[reply] inactive

[ask] Requested field: Potency. Item: CC1(C)N=C(Nc2nc3ccccc3o2)NC2=C1C(=O)CCC2
[reply] inactive

[ask] Requested read-out: Potency. Entry: CSc1cc2c(s1)c1cnn(Cc3cccc(N)c3)c(=O)c1n2C
[reply] 39.8 µM (active)

[ask] Which Potency is reported for this molecule? O=C1CCCC2=C1C(c1ccn[nH]1)N=C(Nc1nc3ccccc3o1)N2 (configuration not stated)
[reply] inactive

[ask] Recorded Potency for NS(=O)(=O)c1ccc(Nc2nc(-c3ccccc3)cs2)cc1 , please?
[reply] 50.1 µM (active)
